Entry source: PubChem BioAssay (EPA / NIEHS)

Test Target: Paired box protein Pax-6 (Homo sapiens) (UniProt P26367)
Sequence (P26367 whole entry, looked up): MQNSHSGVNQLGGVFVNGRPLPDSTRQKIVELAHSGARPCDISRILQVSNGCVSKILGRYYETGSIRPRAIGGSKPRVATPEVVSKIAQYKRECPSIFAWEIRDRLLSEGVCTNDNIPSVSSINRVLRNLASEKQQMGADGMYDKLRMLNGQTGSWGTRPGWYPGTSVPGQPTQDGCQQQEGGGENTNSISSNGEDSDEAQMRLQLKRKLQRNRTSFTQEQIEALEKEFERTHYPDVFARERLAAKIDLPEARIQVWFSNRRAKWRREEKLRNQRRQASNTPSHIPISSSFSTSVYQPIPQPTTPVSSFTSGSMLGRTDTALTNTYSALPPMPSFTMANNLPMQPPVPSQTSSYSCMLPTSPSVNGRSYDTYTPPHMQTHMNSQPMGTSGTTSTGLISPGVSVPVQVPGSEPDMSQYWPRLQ
Measurement Description: ATG_Pax6_CIS: Attagene CIS-FACTORIAL HepG2 Assay for human Paired Box 6 (PAX6) (AID 2282956)
Conditions Used: HepG2 CIS-FACTORIAL PAX6 reporter transcription, RNA readout; actives raise or lower the signal
Activity calls are given as the source filed them. Rule for the calls: active = hit-call score of the fitted dose curve at least 0.9, where 1 is the maximum; inactive = score below 0.9.
Mark one answer only. Choices: true (active), false (inactive)

Solved entries:
INSERT INTO assay_data (compound, test_target, group_label) VALUES
  ('C1=CC2C3C=CC(C3)C2C1 (centres undefined)', 'Paired box protein Pax-6 (Homo sapiens) (UniProt P26367)', 'false'),
  ('CN1CCOCC1', 'Paired box protein Pax-6 (Homo sapiens) (UniProt P26367)', 'false'),
  ('COC(C)(C)CC(C)=O', 'Paired box protein Pax-6 (Homo sapiens) (UniProt P26367)', 'false');

Task: Please let me know the test result on file for CCCCC1CCC(O)CC1 (centres undefined) .
Output: false

Task: Please let me know the test result on file for CC(C)=CCCC(C)CC(=O)O (centres undefined) .
Output: false

Task: Please let me know the test result on file for `Cc1ccc2c(c1)C(=O)OC2=O` .
Output: false
